Source: patent US20240325544A1

# ASSAY TEXT: Plasma concentration of respective natriuretic peptide by ELISA after SC bolus in CD-1 mice (pharmacokinetics, Table 3)
# CONDITION SET: male, CD-1, mouse, in vivo; mice, SC bolus 1.0 mg/kg (≤0.45 μmol/kg), 6 hr; ELISA; n = 3-5; read-out: Plasma concentration of respective Natriuretic Peptide; ANP, BNP, or CNP, 6 hr
PROPERTY: level at 6 h (ng/mL)
State the answer as a number, implicitly in ng/mL.

Incoming: What does the data say about its level at 6 h? Entry: CC[C@H](C)[C@@H]1NC(=O)[C@H](CCCNC(=N)N)NC(=O)[C@H](CC(=O)O)NC(=O)[C@H](CC(C)C)NC(=O)[C@H](CCCCN)NC(=O)[C@H](CC(C)C)NC(=O)CNC(=O)[C@H](Cc2ccccc2)NC(=O)[C@@H](NC(=O)CNC(=O)[C@H](CCCCN)NC(=O)[C@H](CO)NC(=O)[C@H](CC(C)C)NC(=O)CN)CSSC[C@@H](C(=O)O)NC(=O)CNC(=O)[C@H](CC(C)C)NC(=O)CNC(=O)[C@H](CO)NC(=O)[C@H](CCSC)NC(=O)[C@H](CO)NC(=O)CNC1=O [SEQ ID NO: 32, reference compound]
Outgoing: 2.91
